Recorded neutralization EC50 for the following binders
target: BKV serotype IV chimeric infectious virus (VP1 of strain ITA-4) (BK virus serotype IV); experiment: cell-based or functional assay

- Binder: "NEG447A (antibody, human IgG1, lambda, V domains shown) VH: QVQLQESGPGLVKPSETLSLTCTVSGGSISRDYWSWVRQPPGAGLEWIGNIYYSGSTNYNPSLKSRVTISVATNKKQFSLKLTSVTAADTAVYYCARVPGCSSTSCIDGWFDPWGQGILVTVSS VL: QSVLTQPPSVSAAPGQKVTISCSGSSSNIGNTYVSWYQQLPGTAPKLLIYDNNKRPSGIPDRFSGSKSGTSATLGITGLQTGDEADYYCGTWDSSLSAWVFGGGTRLTVLG"
  neutralization EC50, µg/mL: 0.011
- Binder: "P8D11B (antibody, V domains shown) VH: QVQLVESGGTLVQPGGSLRLSCAASGFTFKNYWMTWVRQAPGKGLEWVANIKKDGSEKYYVDSVRGRFTISRDNAKNSLFLQMNSLRPEDTAVYFCATVRSGRYFALDDWGQGTLVTVSS VL: QSVLTQPPSVSVAPGKTARITCGGDNIGSRPVHWYQQKPGQAPILVVYDDSNRPSGIPERFSGSNSGNTATLTISRVEAGDEADYYCQVWSSSTDHPFGGGTKVTVLG"
  neutralization EC50, µg/mL: 0.005
- Binder: "P165E2 (antibody, human IgG1, lambda, V domains shown) VH: QVQLQESGPGLVKPSETLSLTCTVSGGSISRDYWTWVRQPPGEGLEWIGNIYYSGSTNYNPSLKSRVTISVAASKKQFSLKLTSVTAADTAVYYCARVPGCSSTSCIDGWFDPWGQGILVTVSS VL: QSVLTQPPSLSAAPGQRVTISCSGSSSNIGNTYVSWYQQLPGTAPKLLIYDNNKRPSGIPGRFSGSKSGTSATLGITGLQTGDEAAYYCGTWDSSLSAWVFGGGTRLTVLG"
  neutralization EC50, µg/mL: 0.012
